Tested on: Trypanosoma brucei
assay: Trypanosoma brucei 72 hour study
Format: functional, organism-based
Set-up: scale not given: in the data most compounds retested in dose-response had high values
condition: 30.3 µM; […]
Hit rate of the full screen: of about 66,000 compounds, about 960 (1.5%) showed an effect of 50% or more. The entries come from a sample that favours strong results as a whole.
Just so you know, the groups by Percent Effect go like this: bottom (below -10%), middle (-10% to below 30%), top (30% or more)

Example cases with answers are listed next.
molecule: Cc1ccc(-c2ccc(C3CNCCO3)nc2)cc1.Cl (centres undefined)
system tested: Trypanosoma brucei
assigned label: top

molecule: CC(C)N1CCO[C@@H]2CN(C(=O)Cc3cccs3)CC[C@@H]2C1.O=C(O)C(F)(F)F
system tested: Trypanosoma brucei
assigned label: bottom

molecule: Cc1nc(C)n(CC2CN(Cc3ccccc3C#N)CCO2)n1 (centres undefined)
system tested: Trypanosoma brucei
assigned label: middle

molecule: CCc1noc(CCC(=O)N[C@@H]2CC[C@@H](n3ccnc3C)[C@@H]2O)n1
system tested: Trypanosoma brucei
assigned label: middle

[ask] Hello team, could you let me know which band the following molecule falls into: Cl.Cn1ncc2c1CCCC2NCc1cccc(F)c1 (centres undefined)
[reply] middle

[ask] Hello team, could you let me know which band the following molecule falls into: Cc1nc(C(=O)NC2CCN(CCOc3ccc(Br)cc3)CC2)cs1
[reply] top

* * *

Tested on: Trypanosoma brucei
assay: Trypanosoma brucei 72 hour study
Type: functional, organism-based
Design: scale not given: in the data most compounds retested in dose-response had high values
condition: 30 µM; 30.03 µM
Hit rate of the full screen: of about 66,000 compounds, about 960 (1.5%) showed an effect of 50% or more. The full list was thinned out, with strong results kept by preference.
experimental endpoint: Percent Effect (%)
Provide the reading as a plain figure in %.

Use the examples below as a reference point.
compound: Cn1cc(N2CC3(COCCN(Cc4nccs4)C3)OCC2=O)cn1.O=C(O)C(F)(F)F (stereo unspecified)
system tested: Trypanosoma brucei
Percent Effect / %: 27.05
//
compound: CC(=O)c1ccc(N2CCCC(CO)(CCc3ccccc3)C2)nc1 (stereo unspecified)
system tested: Trypanosoma brucei
Percent Effect / %: 50.39
//
compound: CC(O)CN(C)c1cc(C(F)(F)F)nc(-c2cccnc2)n1 (stereo unspecified)
system tested: Trypanosoma brucei
Percent Effect / %: 14.71
//
compound: CC(=O)c1ccc(N2CCCC(CO)(Cc3ccccc3C)C2)nc1 (stereo unspecified)
system tested: Trypanosoma brucei
Percent Effect / %: -6.304
//
compound: O=C(NCC(=O)N1CCN(c2ccccc2)CC1)c1sccc1C1CC1
system tested: Trypanosoma brucei
Percent Effect / %: 8.848
//
compound: Cc1ccc(CN2CCCC3(CCN(S(C)(=O)=O)C3)C2)o1.O=C(O)C(F)(F)F (stereo unspecified)
system tested: Trypanosoma brucei
Percent Effect / %: 16.24

[ask] Any idea what Percent Effect came out for CN(C(=O)c1ncn2c1CN(C)S(=O)(=O)c1ccccc1-2)C1CC1.O=C(O)C(F)(F)F on Trypanosoma brucei?
[reply] -19.09

[ask] Any idea what Percent Effect came out for N#Cc1ccc(N2CCCC(CO)(CCOc3ccccc3)C2)nc1 (stereo unspecified) on Trypanosoma brucei?
[reply] -38.44

[ask] Any idea what Percent Effect came out for O=C(CCNc1ncccn1)NCCc1ccn(-c2ccccc2)n1 on Trypanosoma brucei?
[reply] 19.3

* * *

System: Trypanosoma brucei
assay: Trypanosoma brucei 72 hour study
Format: functional, organism-based
Parameters: scale not given: in the data most compounds retested in dose-response had high values
condition: 30.3 µM; […]
Among all 66,000 compounds or so, about 960 (1.5%) showed an effect of 50% or more. This is one part of a sample in which strong results are shown more often than they occur.
The compounds listed here are annotated with their Percent Effect.
Provide the reading as a plain figure in %.

Use the examples below as a reference point.
compound: CCOc1ccccc1CN1CCc2nc3ccsc3c(=O)n2CC1.Cl
system tested: Trypanosoma brucei
numeric value: -5.491

compound: Cc1nc(CN2CC[C@H]3[C@@H]2CCC(=O)N3c2cnn(C)c2)cs1.O=C(O)C(F)(F)F
system tested: Trypanosoma brucei
numeric value: -10.95

compound: C1CCC(CN2Cc3nnn(CC4CC4)c3C(COCC3CC3)C2)C1.O=C(O)C(F)(F)F (stereo unspecified)
system tested: Trypanosoma brucei
numeric value: -7.314

compound: CC(C)Oc1ncc(C(=O)N2CCC(CC(N)=O)CC2)cc1Cl
system tested: Trypanosoma brucei
numeric value: -51.28

compound: CC(C)c1nc(C2CCCN2c2cnc3cc(F)c(F)cc3n2)no1 (stereo unspecified)
system tested: Trypanosoma brucei
numeric value: 85.34

compound: CCOc1cc2c(cc1CN1CCC3(CCCNC3=O)C1)CCC2 (stereo unspecified)
system tested: Trypanosoma brucei
numeric value: 98.93

compound: Cc1cccc2c1cnn2CCCNC(=O)C1CC1
system tested: Trypanosoma brucei
numeric value: -16.1

compound: CN1CCOC(CNCc2coc(-c3ccc(Cl)cc3)n2)C1 (stereo unspecified)
system tested: Trypanosoma brucei
numeric value: 99.53

[ask] Reported Percent Effect, compound CCOc1cc(Cl)c(CN2CCC3(CCCNC3=O)C2)cc1OC (stereo unspecified) : ____
[reply] -16.79

[ask] Reported Percent Effect, compound Cc1nc(CCN2CCC(Oc3ccccc3F)CC2)cs1 : ____
[reply] -2.649

[ask] Reported Percent Effect, compound CNC(=O)N1CCC2(CC1)c1ncc(C)n1CCN2C.O=C(O)C(F)(F)F.O=C(O)C(F)(F)F : ____
[reply] 11.26

* * *

Test system: Trypanosoma brucei
assay: Trypanosoma brucei 72 hour study
Assay type: functional, organism-based
Parameters: scale not given: in the data most compounds retested in dose-response had high values
condition: 30.3 µM; […]
In all, about 66,000 compounds went through this assay and about 960 (1.5%) showed an effect of 50% or more. Many of the other results were omitted from the sample, so strong results are more common in it than they were.
experimental endpoint: Percent Effect (%)
Provide the reading as a plain figure in %.

compound: CCNc1ccnc(CN2CCCC2C(=O)Nc2nccs2)c1 (stereo unspecified)
Percent Effect, %: 28.37
//
compound: CCN1CCC2(C1)CN(S(=O)(=O)c1cn(C)cn1)C2.O=C(O)C(F)(F)F.O=C(O)C(F)(F)F
Percent Effect, %: -6.671
//
compound: COc1ccc(-c2cc(CN)nc3ccnn23)cc1.Cl
Percent Effect, %: -10.95

[ask] Reported Percent Effect, compound CCOc1ncccc1CNC(=O)Nc1ccc(N(C)C)nc1 : ____
[reply] -10.18

[ask] Reported Percent Effect, compound O=C(C[C@@H]1COC[C@H]2CN(C3CCCC3)C[C@@H]12)NCc1cccnc1.O=C(O)C(F)(F)F.O=C(O)C(F)(F)F : ____
[reply] 5.505

[ask] Reported Percent Effect, compound CC(C)N1CCCC1c1cc(CO)[nH]n1.O=CO (stereo unspecified) : ____
[reply] -7.818

[ask] Reported Percent Effect, compound CC(=O)Nc1cccc(CN2CCCC2C(=O)Nc2nccs2)c1 (stereo unspecified) : ____
[reply] -3.044

[ask] Reported Percent Effect, compound COc1cccc(CNC(Cc2cccs2)c2nc(C)c(C)s2)c1OC.Cl (stereo unspecified) : ____
[reply] -32.09

* * *

Test system: Trypanosoma brucei
assay: Trypanosoma brucei 72 hour study
Format: functional, organism-based
Design: scale not given: in the data most compounds retested in dose-response had high values
condition: 30.3 µM; […]
The campaign covered roughly 66,000 compounds. About 960 (1.5%) showed an effect of 50% or more. For the sample, strong results were picked, then their nearest neighbours and some compounds at random.
experimental endpoint: Percent Effect

Use the examples below as a reference point.
compound: COc1cc(C(=O)NC(C)c2cccs2)cc2c1OCCO2 (stereo not given)
experimental endpoint: Percent Effect
result: 6.204%
//
compound: CC(Cn1cccn1)NCc1nc(-c2ccc3c(c2)OCO3)no1 (stereo not given)
experimental endpoint: Percent Effect
result: -4.603%
//
compound: CN(C)c1ncc(-c2cc(C(=O)NCCC#N)n(CC3CC3)c2)cn1.O=C(O)C(F)(F)F
experimental endpoint: Percent Effect
result: -1.079%
//
compound: CN(C)CCCN(C)C1CCN(c2cccc(-c3cscn3)c2)CC1
experimental endpoint: Percent Effect
result: 17.15%
//
compound: Cc1c(-c2cccs2)nn2c(O)c3c(nc12)CN(C(=O)C1CC1)C3
experimental endpoint: Percent Effect
result: 9.41%
//
compound: c1cc(-c2cscn2)cc(N2CCC(NCCc3cccs3)CC2)c1
experimental endpoint: Percent Effect
result: 64.97%
//
compound: O=C1NCC(c2ccc(Cl)cc2)Cc2[nH]c(CCN3CCOCC3)nc21 (stereo not given)
experimental endpoint: Percent Effect
result: -6.17%
//
compound: Cc1occc1C(=O)N1CCC[C@]2(C[C@@H](OCc3ccccn3)CO2)C1.O=C(O)C(F)(F)F
experimental endpoint: Percent Effect
result: -89.01%

[ask] Reported Percent Effect, compound CCc1n[nH]c(C2CN(C(=O)c3ncoc3C(C)C)CCO2)n1 (stereo not given) : ____
[reply] 10.22%

[ask] Reported Percent Effect, compound O=C(O)C(F)(F)F.c1coc(CN2CCO[C@H]3[C@@H](OCC4CC4)CC[C@@H]32)c1 : ____
[reply] -12.22%

Cited source: ChEMBL document CHEMBL3988442
